- STUDY TARGET: REV-ERBα LBD (human; residues 281-614 Δ324-422) (Homo sapiens, UniProt P20393, DEL324-422)
- Construct: 6×Histag-REV-ERBα LBD (human; residues 281-614 Δ324-422); made in house; host or cells: Escherichia coli
- Sequence (P20393 with tags, fused parts or gaps DEL324-422): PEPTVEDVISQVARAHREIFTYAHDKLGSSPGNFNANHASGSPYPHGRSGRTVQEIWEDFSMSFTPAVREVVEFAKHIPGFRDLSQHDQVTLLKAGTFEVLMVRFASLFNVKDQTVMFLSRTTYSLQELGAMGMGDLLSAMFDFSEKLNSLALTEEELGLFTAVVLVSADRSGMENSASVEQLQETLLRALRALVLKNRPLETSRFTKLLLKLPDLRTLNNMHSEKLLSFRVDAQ
- Sequence (Q9Y618 2335-2356 partner limits assumed): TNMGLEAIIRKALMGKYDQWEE
- ASSAY INFO: TR-FRET corepressor interaction assay (REV-ERBα LBD, FITC-SMRT peptide)
- Type: biochemical
- MEASUREMENT CONTEXT: FITC-SMRT peptide, read-out: REVERBα agonism (EC50 class, FRET assay)
pEC50: −log10 of the molar value.
Hi there, I'd appreciate the recorded pEC50 for every entry that follows.

1) CC(C)C(=O)n1cc([C@H](NS(=O)(=O)C2CCC2)C(F)(F)F)c2cc(F)c(-c3ccccc3C(F)(F)F)cc21 | > 6.30
2) CC(C)(C)Cn1cc([C@H](NS(=O)(=O)C2CC(O)C2)C(F)(F)F)c2ccc(-c3ccccc3C(F)(F)F)cc21 (stereo partly shown) | 5.52 to 6.30

Provide reported pEC50 for each item, in the same order as listed.
1. CC1(Cn2cc([C@H](NS(=O)(=O)C3CC3)C(F)(F)F)c3cc(F)c(-c4ccccc4C(F)(F)F)cc32)COC1
2. CC(C)Cn1cc(C(CS(=O)(=O)C2CC2)C(F)(F)F)c2ccc(-c3ccccc3C(F)(F)F)cc21 (stereo not shown)
3. NC(=O)c1cccc(F)c1-c1ccc2c([C@H](NS(=O)(=O)C3CCC3)C(F)(F)F)cn(C3CCC3)c2c1
4. CC(C)(C)Cn1cc([C@H](NS(=O)(=O)C2COC2)C(F)(F)F)c2cc(F)c(-c3ccccc3C(F)(F)F)cc21
5. CC(C)(C)Cn1cc([C@H](NS(=O)(=O)C2CCC2)C(F)F)c2ccc(-c3ccc(F)cc3C(F)(F)F)cc21

1: > 6.30; 2: 5.52 to 6.30; 3: 5.52 to 6.30; 4: > 6.30; 5: > 6.30

----------
- STUDY TARGET: REV-ERBα LBD (human; residues 281-614 Δ324-422) (Homo sapiens, UniProt P20393, DEL324-422)
- Construct: 6×Histag-REV-ERBα LBD (human; residues 281-614 Δ324-422); made in house; host or cells: Escherichia coli
- ASSAY INFO: TR-FRET corepressor interaction assay (REV-ERBα LBD, FITC-SMRT peptide)
- Format: biochemical
- MEASUREMENT CONTEXT: Table 2, read-out: REVERBα agonism (EC50 class, FRET assay)
MEASURED ATTRIBUTE: EC50

1) CC(C)Cn1cc(CCNS(=O)(=O)N(C)C)c2cc(Br)ccc21 | < 500 nM
2) CC(C)(C)Cn1cc([C@H](NS(=O)(=O)C2CC2)C(F)(F)F)c2ccc(-c3ccccc3Cl)cc21 | < 500 nM
3) Cc1ccc2c([C@H](NS(=O)(=O)C3CC3)C(F)(F)F)cn(CC(C)C)c2c1 | < 500 nM
4) CC(C)S(=O)(=O)NCCc1cn(CC2CCCC2)c2cc(-c3ccncc3)ccc12 | < 500 nM

For each entry beneath this line, provide reported EC50.
1. CC(C)Cn1cc(CC(NS(=O)(=O)C(C)C)C(F)(F)F)c2ccc(-c3ccncc3)cc21 (centres unmarked)
2. CC(C)CC(=O)n1cc(CCNS(=O)(=O)N(C)C)c2ccc(-c3ccncc3)cc21
3. CC(C)Cn1cc(CCNS(=O)(=O)C(C)C)c2cc(F)c(-c3ccccc3Cl)cc21
4. CC(C)Cn1cc(CCNS(=O)(=O)N(C)C)c2cc(F)c(Br)cc21

["> 3000 nM", "500 to 3000 nM", "< 500 nM", "< 500 nM"]

Ref: patent US20230339886A1
